# protocol: Toxicity assessed as inhibition of cell viability of UVB irradiated human HaCaT cells at 10 uM administered 2 hrs before irradiation by MTT assay
# Type: cell-based
# stated-conditions: read-out: Inhibition
measured-endpoint: cytotoxicity at 2 h, 10 µM (%)
Reply numerically in %, unit not repeated.

Solved entries (count: 5):
| compound | val |
| --- | --- |
| CC1=CCC[C@H]2[C@](C)(Cc3cc(O)cc(SCC(=O)O)c3O)[C@@H](C)CC[C@]12C | 28.5 |
| CC1=CCC[C@H]2[C@](C)(Cc3cc(O)c(SCCO)cc3O)[C@@H](C)CC[C@]12C | 48.4 |
| CC1=CCC[C@H]2[C@](C)(Cc3cc(O)c(Sc4ccc(C)cc4)c(Sc4ccc(C)cc4)c3O)[C@@H](C)CC[C@]12C | 0 |
| CC1=CCC[C@H]2[C@](C)(Cc3cc(O)cc(SCCO)c3O)[C@@H](C)CC[C@]12C | 22.5 |
| CC1=CCC[C@H]2[C@](C)(Cc3cc(O)c(Sc4ccc(C)cc4)cc3O)[C@@H](C)CC[C@]12C | 0 |

CC1=CCC[C@H]2[C@](C)(Cc3cc(O)cc(SCC(O)CO)c3O)[C@@H](C)CC[C@]12C (stereo partly specified) yielded cytotoxicity at 2 h, 10 µM of 14
